B1: NELF-E aptamer (parent)
chain: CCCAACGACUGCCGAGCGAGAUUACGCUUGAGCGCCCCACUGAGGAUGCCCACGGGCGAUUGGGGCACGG

- Variants of: B1
- Test: HiTS-RAP
- Recorded Conditions: with NELF-E (Drosophila)
Property: pKd
pKd field: float, defined as -log10 of concentration (mol/L).

Previously resolved entries follow.
# Mutation, pKd
records = [
    ("U22G U23A", 8.21),
    ("A8G C51U", 8.16),
    ("A24G U60C", 7.89),
    ("U60G", 8.28),
]

Ask | What does the data say about its pKd? Entry: A4G C12G
Reply | 8.23
